# measurement.target: SERT (Homo sapiens, UniProt P31645)
# Sequence (P31645 whole entry): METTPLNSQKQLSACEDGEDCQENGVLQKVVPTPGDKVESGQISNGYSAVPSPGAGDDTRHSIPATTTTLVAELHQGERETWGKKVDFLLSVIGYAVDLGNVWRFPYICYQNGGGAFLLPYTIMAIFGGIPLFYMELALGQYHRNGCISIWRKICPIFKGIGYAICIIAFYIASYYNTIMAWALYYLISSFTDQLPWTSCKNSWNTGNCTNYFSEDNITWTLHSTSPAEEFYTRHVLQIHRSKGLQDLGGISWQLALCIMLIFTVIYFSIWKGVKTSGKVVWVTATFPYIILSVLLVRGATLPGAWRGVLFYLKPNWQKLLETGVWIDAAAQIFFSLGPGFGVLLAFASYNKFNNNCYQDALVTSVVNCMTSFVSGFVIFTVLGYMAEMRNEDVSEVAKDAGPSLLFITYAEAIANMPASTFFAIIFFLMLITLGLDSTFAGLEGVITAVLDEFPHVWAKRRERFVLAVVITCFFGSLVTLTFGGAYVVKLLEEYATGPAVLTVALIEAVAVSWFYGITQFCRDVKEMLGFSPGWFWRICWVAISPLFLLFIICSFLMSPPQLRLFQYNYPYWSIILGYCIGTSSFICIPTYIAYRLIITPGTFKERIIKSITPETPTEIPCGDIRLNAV
# assay.method.text: Stereoselective uptake into SERT-overexpressing HEK293 cells
readout.type: Stereoselectivity Vmax (fold)
Your answer should be a plain number; it is taken to be in fold.

Answered examples (5):
INSERT INTO results (compound, units_label, numeric_readout) VALUES
  ('NCC(O)c1cccc(O)c1 (single isomer, unassigned) [Norphenylephrine-1, Norphenylephrine]', 'fold', 1.27),
  ('NCC(O)c1cccc(O)c1 (single isomer, unassigned) [Norphenylephrine-2, Norphenylephrine]', 'fold', 1.27),
  ('C[C@@H]1NCCc2cc(O)c(O)cc21 [Salsolinol-1, Salsolinol]', 'fold', 1.34),
  ('CNCC(O)c1ccc(O)c(OC)c1 (single isomer, unassigned) [Metanephrine-1, Metanephrine]', 'fold', 1.08),
  ('C[C@@H]1NCCc2cc(O)c(O)cc21 [Salsolinol-2, Salsolinol]', 'fold', 1.34);

Read the entry CNC[C@H](O)c1cccc(O)c1 [(R)-Phenylephrine] and write its reported Stereoselectivity Vmax.
1.49

Read the entry CNC[C@@H](O)c1cccc(O)c1 [(S)-Phenylephrine] and write its reported Stereoselectivity Vmax.
1.49

Read the entry CNCC(O)c1ccc(O)c(OC)c1 (single isomer, unassigned) [Metanephrine-2, Metanephrine] and write its reported Stereoselectivity Vmax.
1.08

###

# measurement.target: DAT (Homo sapiens)
# Sequence (Q01959 whole entry): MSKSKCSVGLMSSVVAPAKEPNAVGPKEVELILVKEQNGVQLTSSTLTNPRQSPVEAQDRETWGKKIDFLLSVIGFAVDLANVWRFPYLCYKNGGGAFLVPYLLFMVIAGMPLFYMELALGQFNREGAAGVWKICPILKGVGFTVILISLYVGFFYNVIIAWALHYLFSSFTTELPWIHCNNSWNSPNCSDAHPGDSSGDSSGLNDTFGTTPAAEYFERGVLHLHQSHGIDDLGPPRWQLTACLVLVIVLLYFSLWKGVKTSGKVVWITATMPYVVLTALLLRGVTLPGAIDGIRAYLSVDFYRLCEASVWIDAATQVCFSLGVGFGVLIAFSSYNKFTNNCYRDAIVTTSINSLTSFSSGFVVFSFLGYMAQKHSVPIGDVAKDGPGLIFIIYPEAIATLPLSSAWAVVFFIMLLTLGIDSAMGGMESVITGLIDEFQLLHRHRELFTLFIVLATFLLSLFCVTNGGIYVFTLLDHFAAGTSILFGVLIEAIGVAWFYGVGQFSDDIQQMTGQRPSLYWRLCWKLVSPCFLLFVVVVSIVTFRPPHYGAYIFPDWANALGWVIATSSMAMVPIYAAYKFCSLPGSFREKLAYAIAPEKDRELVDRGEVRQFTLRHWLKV
# assay.method.text: Stereoselective uptake into DAT-overexpressing HEK293 cells;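 also: intracellular accumulation measured by chiral HPLC-MS/MS in stably transfected HEK293 cells, normalized to total protein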
# condition.description: human
Each entry below carries its reported selectivity ratio at 2 min.

Answered examples (2):
INSERT INTO assay_data (molecule, readout_type, result) VALUES
  ('NCC(O)c1cccc(O)c1 (single isomer, unassigned)', 'selectivity ratio at 2 min', 1.29),
  ('CNC[C@@H](O)c1ccc(O)cc1 [(S)-Synephrine]', 'selectivity ratio at 2 min', 2.23);

Look up DAT (Homo sapiens) data: selectivity ratio at 2 min of CNC[C@H](O)c1cccc(O)c1 [(R)-Phenylephrine] , then report it.
1.48

Look up DAT (Homo sapiens) data: selectivity ratio at 2 min of CNC[C@@H](O)c1cccc(O)c1 [(S)-Phenylephrine] , then report it.
1.48

Look up DAT (Homo sapiens) data: selectivity ratio at 2 min of CNC[C@H](O)c1ccc(O)cc1 [(R)-Synephrine] , then report it.
2.23

###

# measurement.target: OCT2 (Homo sapiens, UniProt O15244, S270A)
# assay.method.text: Stereoselective uptake into OCT2 (wild-type)-overexpressing HEK293 cells
# condition.description: OCT2; ratio between enantiomers, given as for (R) or for 1
Marks after values point to notes of the source that are not given here.
Each entry below carries its reported Stereoselectivity Vmax.

Answered examples (2):
INSERT INTO assay_data (molecule, measurement_target, readout_type, result) VALUES
  ('NC[C@@H](O)c1ccc(O)c(O)c1 [(S)-Norepinephrine]', 'OCT2 (Homo sapiens, UniProt O15244, S270A)', 'Stereoselectivity Vmax', '2.17-fold for (R) **'),
  ('NCC(O)c1cccc(O)c1 (single isomer, unassigned)', 'OCT2 (Homo sapiens, UniProt O15244, S270A)', 'Stereoselectivity Vmax', '2.19 fold');

Read the entry NC[C@H](O)c1ccc(O)c(O)c1 [(R)-Norepinephrine] and write its reported Stereoselectivity Vmax.
2.17-fold for (R) **

Read the entry CNCC(O)c1ccc(O)c(OC)c1 (single isomer, unassigned) and write its reported Stereoselectivity Vmax.
2.13 fold

###

# measurement.target: SERT (Homo sapiens, UniProt P31645)
# assay.method.text: Stereoselective uptake into SERT-overexpressing HEK293 cells
# condition.description: SERT; ratio between enantiomers, given as for (R) or for 1 (first-eluting)
readout.type: Stereoselectivity Km (fold)
Your answer should be a plain number; it is taken to be in fold.

Answered examples (3):
INSERT INTO assay_data (molecule, measurement_target, readout_type, numeric_readout) VALUES
  ('COc1cc(C(O)CN)ccc1O (single isomer, unassigned) [Normetanephrine-1, Normetanephrine]', 'SERT (Homo sapiens, UniProt P31645)', 'Stereoselectivity Km', 1.08),
  ('COc1cc(C(O)CN)ccc1O (single isomer, unassigned) [Normetanephrine-2, Normetanephrine]', 'SERT (Homo sapiens, UniProt P31645)', 'Stereoselectivity Km', 1.08),
  ('NC[C@H](O)c1ccc(O)cc1 [(R)-Octopamine]', 'SERT (Homo sapiens, UniProt P31645)', 'Stereoselectivity Km', 1.39);

# ---- query molecule ----
Look up SERT (Homo sapiens, UniProt P31645) data: Stereoselectivity Km of NC[C@@H](O)c1ccc(O)cc1 [(S)-Octopamine] , then report it.
1.39

###

# measurement.target: NET (Homo sapiens, UniProt P23975)
# Sequence (P23975 whole entry): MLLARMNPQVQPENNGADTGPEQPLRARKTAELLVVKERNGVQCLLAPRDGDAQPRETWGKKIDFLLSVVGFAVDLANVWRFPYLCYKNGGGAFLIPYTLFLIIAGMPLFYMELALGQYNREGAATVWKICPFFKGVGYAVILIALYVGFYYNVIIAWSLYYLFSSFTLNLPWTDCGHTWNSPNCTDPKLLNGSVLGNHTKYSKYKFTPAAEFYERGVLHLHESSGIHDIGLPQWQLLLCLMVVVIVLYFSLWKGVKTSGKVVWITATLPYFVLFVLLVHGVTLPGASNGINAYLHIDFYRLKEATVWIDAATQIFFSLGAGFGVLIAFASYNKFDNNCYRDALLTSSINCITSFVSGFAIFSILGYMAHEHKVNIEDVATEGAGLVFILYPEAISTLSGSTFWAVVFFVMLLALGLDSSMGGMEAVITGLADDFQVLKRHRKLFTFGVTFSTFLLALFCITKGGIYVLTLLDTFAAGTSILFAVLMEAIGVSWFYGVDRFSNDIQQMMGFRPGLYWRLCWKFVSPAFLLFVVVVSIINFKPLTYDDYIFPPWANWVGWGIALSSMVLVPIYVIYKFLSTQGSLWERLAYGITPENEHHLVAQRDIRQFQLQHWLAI
# assay.method.text: Stereoselective uptake into NET-overexpressing HEK293 cells;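 also: intracellular enantiomers quantified in cell lysates by chiral HPLC-MS/MS after a 2 min substrate incubation, with uptake normalized to total cellular protein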
# condition.description: human
readout.type: selectivity ratio at 2 min

Answered examples (4):
INSERT INTO assay_data (molecule, result) VALUES
  ('CNC[C@@H](O)c1ccc(O)cc1 [(S)-Synephrine]', 4.7),
  ('CNC[C@@H](O)c1cccc(O)c1 [(S)-Phenylephrine]', 1.43),
  ('CNC[C@H](O)c1cccc(O)c1 [(R)-Phenylephrine]', 1.43),
  ('NCC(O)c1cccc(O)c1 (single isomer, unassigned)', 1.21);

Read the entry CNC[C@H](O)c1ccc(O)cc1 [(R)-Synephrine] and write its reported selectivity ratio at 2 min.
4.7

Read the entry COc1cc(C(O)CN)ccc1O (single isomer, unassigned) and write its reported selectivity ratio at 2 min.
1.28

###

# measurement.target: SERT (Homo sapiens, UniProt P31645)
# assay.method.text: Stereoselective uptake into SERT-overexpressing HEK293 cells;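 also: uptake into HEK293 cells stably expressing human SERT over 2 min, enantiomers measured in cell lysate by chiral HPLC-MS/MS, normalized to total protein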
# condition.description: human, HEK293 cells stably overexpressing human SERT
Each entry below carries its reported selectivity ratio at 2 min.
Please give the numeric answer without any surrounding text.

INSERT INTO measurements (compound, measurement_target, numeric_readout) VALUES
  ('NC[C@H](O)c1ccc(O)cc1 [(R)-Octopamine]', 'SERT (Homo sapiens, UniProt P31645)', 1.71);

# ---- query compound ----
Read the entry NC[C@@H](O)c1ccc(O)cc1 [(S)-Octopamine] and write its reported selectivity ratio at 2 min.
1.71

###

# measurement.target: OCT2 (Homo sapiens, UniProt O15244)
# Sequence (O15244 whole entry S270A): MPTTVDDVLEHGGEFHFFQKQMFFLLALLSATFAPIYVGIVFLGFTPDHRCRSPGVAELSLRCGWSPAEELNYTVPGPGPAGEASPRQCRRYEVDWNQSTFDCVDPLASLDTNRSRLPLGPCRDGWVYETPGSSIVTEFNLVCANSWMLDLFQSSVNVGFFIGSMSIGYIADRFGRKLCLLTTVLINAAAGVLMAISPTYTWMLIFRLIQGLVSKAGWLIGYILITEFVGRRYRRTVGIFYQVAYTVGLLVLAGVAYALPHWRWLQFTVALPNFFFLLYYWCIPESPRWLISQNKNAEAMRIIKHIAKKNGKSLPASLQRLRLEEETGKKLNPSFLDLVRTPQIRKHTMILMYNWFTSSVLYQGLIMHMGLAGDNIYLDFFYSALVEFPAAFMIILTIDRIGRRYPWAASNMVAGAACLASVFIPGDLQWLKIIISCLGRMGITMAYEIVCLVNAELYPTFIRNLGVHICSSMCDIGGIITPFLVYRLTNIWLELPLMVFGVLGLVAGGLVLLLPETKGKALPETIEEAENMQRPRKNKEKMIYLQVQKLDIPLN
# assay.method.text: Stereoselective uptake into OCT2 (wild-type)-overexpressing HEK293 cells
# condition.description: human, HEK293 cells stably overexpressing human wild-type OCT2, Stereoselectivity ClInt, OCT2; ratio between enantiomers, given as for (R) or for 1
readout.type: selectivity ratio at 2 min
Please give the numeric answer without any surrounding text.

INSERT INTO assay_data (molecule, numeric_readout) VALUES
  ('NC[C@@H](O)c1ccc(O)cc1 [(S)-Octopamine]', 1.31);

Read the entry NC[C@H](O)c1ccc(O)cc1 [(R)-Octopamine] and write its reported selectivity ratio at 2 min.
1.31

###

# measurement.target: UniProt O15245
# Sequence (O15245 whole entry): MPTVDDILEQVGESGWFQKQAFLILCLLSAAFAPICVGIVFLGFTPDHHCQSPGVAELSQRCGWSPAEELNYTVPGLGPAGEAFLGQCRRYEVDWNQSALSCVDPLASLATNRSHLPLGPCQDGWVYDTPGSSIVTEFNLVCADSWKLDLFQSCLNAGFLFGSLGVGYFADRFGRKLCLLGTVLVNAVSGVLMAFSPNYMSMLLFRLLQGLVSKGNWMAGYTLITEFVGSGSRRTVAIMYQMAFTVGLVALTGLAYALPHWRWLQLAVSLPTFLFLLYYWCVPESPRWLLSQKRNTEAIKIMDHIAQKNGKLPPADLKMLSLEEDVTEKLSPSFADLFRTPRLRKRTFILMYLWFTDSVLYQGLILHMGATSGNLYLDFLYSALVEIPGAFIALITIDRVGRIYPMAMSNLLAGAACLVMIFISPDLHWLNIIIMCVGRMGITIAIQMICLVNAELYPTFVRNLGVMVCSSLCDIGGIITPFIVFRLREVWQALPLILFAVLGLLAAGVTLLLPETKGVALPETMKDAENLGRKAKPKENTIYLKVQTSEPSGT
# assay.method.text: Stereoselective uptake into OCT1-overexpressing HEK293 cells;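 also: enantiomers quantified inside cells by chiral HPLC-MS/MS, uptake normalized to total protein from bicinchoninic acid assay, substrates applied in HBSS+ buffer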
# condition.description: OCT1; quotient of vmax over Km
readout.type: Clint ± SEM

Answered examples (3):
INSERT INTO results (compound, measurement_target, result) VALUES
  ('C[C@@H]1NCCc2cc(O)c(O)cc21 [Salsolinol-1, Salsolinol]', 'UniProt O15245', '10.9 mL × g Protein^−1 × min^−1'),
  ('C[C@@H]1NCCc2cc(O)c(O)cc21 [Salsolinol-2, Salsolinol]', 'UniProt O15245', '10.9 mL × g Protein^−1 × min^−1'),
  ('NC[C@H](O)c1ccccc1 [(R)-Bisnorephedrine]', 'UniProt O15245', '1.17 mL × g Protein^−1 × min^−1');

Read the entry COc1cc(C(O)CN)ccc1O (single isomer, unassigned) [Normetanephrine-2, Normetanephrine] and write its reported Clint ± SEM.
2.65 mL × g Protein^−1 × min^−1

Read the entry NC[C@H](O)c1ccc(O)c(O)c1 [(R)-Norepinephrine] and write its reported Clint ± SEM.
0.45 ± 0.28 mL × g Protein^−1 × min^−1

###

# measurement.target: NET (Homo sapiens)
# assay.method.text: Stereoselective uptake into NET-overexpressing HEK293 cells
# condition.description: NET; ratio between enantiomers, given as for (R) or for 1 (first-eluting)
readout.type: Stereoselectivity Km (fold)
Your answer should be a plain number; it is taken to be in fold.

INSERT INTO measurements (compound, units_label, numeric_readout) VALUES
  ('NC[C@@H](O)c1ccc(O)cc1 [(S)-Octopamine]', 'fold', 1.55),
  ('NC[C@H](O)c1ccc(O)cc1 [(R)-Octopamine]', 'fold', 1.55);

Read the entry COc1cc(C(O)CN)ccc1O (single isomer, unassigned) [Normetanephrine-2, Normetanephrine] and write its reported Stereoselectivity Km.
1.35

Read the entry NC[C@@H](O)c1ccccc1 [(S)-Bisnorephedrine] and write its reported Stereoselectivity Km.
1.01

Read the entry COc1cc(C(O)CN)ccc1O (single isomer, unassigned) [Normetanephrine-1, Normetanephrine] and write its reported Stereoselectivity Km.
1.35

Read the entry NC[C@H](O)c1ccccc1 [(R)-Bisnorephedrine] and write its reported Stereoselectivity Km.
1.01

Value source: paper PMC9599461
